Molecular target: Protein deacetylase HDAC6 (Homo sapiens, UniProt Q9UBN7)
Sequence (Q9UBN7 whole entry): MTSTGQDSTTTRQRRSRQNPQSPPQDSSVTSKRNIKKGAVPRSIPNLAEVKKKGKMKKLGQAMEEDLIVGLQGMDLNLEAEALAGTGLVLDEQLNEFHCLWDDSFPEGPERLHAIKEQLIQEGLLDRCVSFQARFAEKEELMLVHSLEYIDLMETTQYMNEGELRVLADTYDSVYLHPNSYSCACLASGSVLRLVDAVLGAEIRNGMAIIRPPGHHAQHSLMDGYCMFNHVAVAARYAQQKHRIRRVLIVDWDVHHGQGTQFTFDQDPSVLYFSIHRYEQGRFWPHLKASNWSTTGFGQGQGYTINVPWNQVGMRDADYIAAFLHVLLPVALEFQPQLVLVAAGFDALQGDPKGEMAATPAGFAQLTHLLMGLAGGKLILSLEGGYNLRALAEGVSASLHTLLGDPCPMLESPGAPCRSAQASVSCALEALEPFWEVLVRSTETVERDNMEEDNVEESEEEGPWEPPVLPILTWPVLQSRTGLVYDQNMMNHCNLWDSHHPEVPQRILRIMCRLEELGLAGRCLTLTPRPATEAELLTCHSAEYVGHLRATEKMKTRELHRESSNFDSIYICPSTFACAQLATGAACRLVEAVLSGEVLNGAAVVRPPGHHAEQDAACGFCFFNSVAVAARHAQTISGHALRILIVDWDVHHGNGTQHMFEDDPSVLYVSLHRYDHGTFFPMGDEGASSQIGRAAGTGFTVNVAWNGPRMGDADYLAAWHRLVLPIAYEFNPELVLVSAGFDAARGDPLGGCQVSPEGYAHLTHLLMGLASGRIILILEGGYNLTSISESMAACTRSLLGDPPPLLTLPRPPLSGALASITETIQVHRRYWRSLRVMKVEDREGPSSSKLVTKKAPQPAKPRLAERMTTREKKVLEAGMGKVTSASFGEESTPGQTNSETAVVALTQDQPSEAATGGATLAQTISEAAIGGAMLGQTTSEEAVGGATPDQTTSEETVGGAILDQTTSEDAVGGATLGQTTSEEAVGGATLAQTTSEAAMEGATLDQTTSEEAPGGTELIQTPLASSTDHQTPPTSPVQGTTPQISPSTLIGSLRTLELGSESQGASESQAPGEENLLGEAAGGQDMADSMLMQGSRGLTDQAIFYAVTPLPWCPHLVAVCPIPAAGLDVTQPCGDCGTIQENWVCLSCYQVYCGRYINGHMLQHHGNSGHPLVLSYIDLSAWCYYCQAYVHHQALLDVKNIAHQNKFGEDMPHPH
Assay: Inhibition of human recombinant HDAC6 using ZMAL (Z-(Ac)Lys-AMC fluorogenic substrate incubated for 90 mins by fluorescence method
QUANTITY: IC50 (µM)
Answer format: numeric, µM implied, no suffix.

MOL: COC(=O)c1c(CCCCCCCC(=O)NO)cccc1OC
U: µM
IC50: 0.215

Find IC50 for COc1cccc(CCCCCCCC(=O)NO)c1 on Protein deacetylase HDAC6 (Homo sapiens, UniProt Q9UBN7) and write it down.
0.19

====

Experiment: Neurotoxicity against rat CGN cells assessed as cell viability at 25 uM incubated for 24 hrs by MTT assay
Format: toxicity, cell-based
Details: read-out: Activity
QUANTITY: viability at 24 h, 25 µM (%)
Value expressed in %; do not type the unit.

Look up and state reported viability at 24 h, 25 µM for O=C(CCCCCCC(=O)Nc1ccccc1)NO
70

====

Molecular target: Histone deacetylase 1 (Homo sapiens, UniProt Q13547)
Sequence (Q13547 whole entry): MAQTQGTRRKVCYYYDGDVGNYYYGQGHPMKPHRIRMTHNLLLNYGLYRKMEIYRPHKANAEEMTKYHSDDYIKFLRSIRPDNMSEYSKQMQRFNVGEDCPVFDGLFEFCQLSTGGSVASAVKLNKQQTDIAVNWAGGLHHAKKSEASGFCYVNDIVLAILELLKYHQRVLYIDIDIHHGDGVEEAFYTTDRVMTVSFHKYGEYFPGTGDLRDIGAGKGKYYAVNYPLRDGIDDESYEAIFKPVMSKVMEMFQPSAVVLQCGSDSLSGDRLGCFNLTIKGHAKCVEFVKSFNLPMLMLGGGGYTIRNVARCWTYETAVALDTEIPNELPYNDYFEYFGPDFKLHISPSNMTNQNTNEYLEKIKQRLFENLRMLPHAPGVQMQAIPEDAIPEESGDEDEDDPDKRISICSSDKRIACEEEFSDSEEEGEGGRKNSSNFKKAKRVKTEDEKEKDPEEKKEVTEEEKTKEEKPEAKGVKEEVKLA
Assay: Inhibition of human recombinant HDAC1 using ZMAL (Z-(Ac)Lys-AMC fluorogenic substrate incubated for 90 mins by fluorescence method
compounds and their reported pIC50
When answering, recall that pIC50 equals minus log10 of the concentration in mol/L, and write that number alone.

MOL: COc1cccc(CCCCCCCC(=O)NO)c1
pIC50: 6.50

Shifting focus to the compound that follows.
Answer briefly: pIC50 recorded on Histone deacetylase 1 (Homo sapiens, UniProt Q13547) for COC(=O)c1c(CCCCCCCC(=O)NO)cccc1OC
6.11

====

Experiment: Permeability of the compound at pH 7.4 PBS buffer at 100 uM measured upto 6 hrs by PAMPA-BBB assay
Each record is given Criterion met if its reported Papp at 6 h, 100 µM is strictly below 5 ×10⁻⁶ cm/s. Records at or above 5 ×10⁻⁶ cm/s are given Criterion not met.

Take a look at these entries with their results.
COMPOUND: COC(=O)c1c(CCCCCCCC(=O)NO)cccc1OC
CLASSIFICATION: Criterion not met
//
COMPOUND: Nc1c2c(nc3ccccc13)CCCC2 [TACRINE]
CLASSIFICATION: Criterion met
//
COMPOUND: COc1cccc(CCCCCCCC(=O)NO)c1
CLASSIFICATION: Criterion not met
//
COMPOUND: CCCCCCCCCCCCCCCc1cccc(O)c1
CLASSIFICATION: Criterion met

Note: attention shifts to another entry.
Lab note: confirm whether the reported Papp at 6 h, 100 µM for this compound is below 5 ×10⁻⁶ cm/s, equality not counting. compound: CO/N=C(\C(=O)N[C@@H]1C(=O)N2C(C(=O)O)=C(COC(N)=O)CS[C@H]12)c1ccco1 [CEFUROXIME]
Criterion met
